Reported pKd values for the following binders.
Biological target: T1, Fluorescently labeled recombinant Nogo-A-Δ20 (rat aa544-725) (rat, UniProt Q9JK11-1 544-725, fluorescent label (Amine Reactive Protein labeling kit RED, L001, Nano Temper technologies))
T1 construct: Nogo-A (Rtn4), rat, residues 544-725 (Nogo-A-Δ20 domain); not shown: T7 or HA (His-/T7- or His-/HA-tagged)
T1 sequence (looked up): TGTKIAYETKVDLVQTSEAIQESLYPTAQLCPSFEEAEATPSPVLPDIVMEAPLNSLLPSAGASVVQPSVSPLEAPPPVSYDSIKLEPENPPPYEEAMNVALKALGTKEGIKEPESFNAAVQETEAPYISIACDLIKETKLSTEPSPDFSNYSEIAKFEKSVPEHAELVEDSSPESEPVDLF
Assay: MST; Monolith NT.115; fluorescently labeled Nogo-A-Δ20 constant (~40 nM), peptides serially diluted; PBS with 0.025% Tween-20, pH 7.4; LED 60%, IR laser 20%; non-linear regression with Hill coefficient 1.0
Conditions: both partners purified
pKd: −log10 of the molar value.
experimental_endpoint: pKd

>>> result("LSGHVTLSLTPVQW (Extracellular loop 1 of S1PR2; also called ECL1; source: synthetic peptide (JPT Peptide Technologies)) [S1PR2 extracellular loop 1 peptide]")
"~5.77"
>>> result("MGGLYSEYLNPEKVQEHYNYTKETLDMQETPSRK (Extracellular N-terminus of S1PR2; source: synthetic peptide (JPT Peptide Technologies)) [S1PR2 N-terminus peptide]")
"~4.96"
